# Test system: OV90
# EXPERIMENT_NOTES: Primary qHTS to identify gynecologic anti-cancer compounds using libraries of approved drugs and bioactive compounds (AID 1345084); note: nearly all actives have a fitted effect of over 55% in size
# SETUP_CONDITIONS: Gynecologic cancer cell panel viability, ATPlite luminescence, 48 h; series mostly up to 57.5 µM
# Text: National Center for Advancing Translational Sciences [NCATS] Assay Overview: Chemotherapeutic drug responses vary from cancer to cancer and from patient to patient. […] ATPlite is a luminescence based assay reliant on the conversion of a luciferase substrate to light in the presence of ATP. As a cytotoxic compound will suppress growth and decrease the number of cells, the concentration of ATP will decrease, and less light signal will be detected in the well. […]
Results filed as inconclusive are left out. Calls of active or inactive are those of the source. Calls come from the whole dose curve; as a rule, active = well fitted cell-killing curve with a large enough effect; inconclusive = small, poorly fitted or top-dose-only effect, or effect the other way; inactive = flat fitted curve, though single readings scatter.
Labels: class 1 (active), class 0 (inactive)

# COMPOUND, CATEGORY
data = [
    ("NC(CO)C(=O)NNCc1ccc(O)c(O)c1O (stereo not given)", "class 0"),
    ("CCOC(=O)Nc1ccc(NCc2ccc(F)cc2)nc1N", "class 0"),
    ("COc1cc2c(c(OC)c1OC)-c1ccc(OC)c(=O)cc1[C@@H](NC(C)=O)CC2", "class 1"),
    ("CC1(C)O[C@H]2CC(=O)OC[C@]23[C@H]2CC[C@@]4(C)[C@H](c5ccoc5)OC(=O)[C@H]5O[C@]54[C@]2(C)C(=O)C[C@@H]13", "class 0"),
    ("CC(COc1ccccc1)N(CCCl)Cc1ccccc1 (stereo not given)", "class 0"),
    ("Cc1cc(C(C)(C)C)c(O)c(C)c1CC1=NCCN1", "class 0"),
    ("CC(C)Cc1ccc(C(C)C(=O)O)cc1 (stereo not given)", "class 0"),
    ("Nc1nc2c(ncn2COC(CO)CO)c(=O)[nH]1", "class 0"),
    ("Cc1ccc(C(=O)Nc2ccc(S(=O)(=O)O)c3cc(S(=O)(=O)O)cc(S(=O)(=O)O)c23)cc1NC(=O)c1cccc(NC(=O)Nc2cccc(C(=O)Nc3cc(C(=O)Nc4ccc(S(=O)(=O)O)c5cc(S(=O)(=O)O)cc(S(=O)(=O)O)c45)ccc3C)c2)c1", "class 0"),
    ("CN1C(C(=O)Nc2ccccn2)=C(O)c2ccccc2S1(=O)=O", "class 0"),
]
